We begin with a simple list: items and their reported pKa.
assay: pKa of basic centres (Table 1); type: physicochemical; settings: first base, e.g., an aliphatic primary, secondary, or tertiary amine; read-out: pKa (Base 1)
Value kind: pKa

{"columns": ["Compound", "Result"],
 "data": [
  ["CCNC(=O)CO[C@H](c1ccccc1)[C@H](CNC)c1ccc2ccccc2c1 [Compound 6]", 9.6],
  ["CNC[C@H](c1ccc(Br)c(Cl)c1)[C@H](O)c1ccccc1 (racemic) [Compound 43]", 9.4],
  ["CNC[C@H](c1ccc(Cl)c(Cl)c1)[C@H](O)c1cccc(N)c1 [Compound 24]", 9.4],
  ["CNC[C@H](c1ccc(Br)c(Cl)c1)[C@@H](O)c1ccccc1 [Compound 21]", 9.4],
  ["CNC[C@@H](c1ccc(Cl)c(Cl)c1)[C@@H](O)c1cccc(N)c1 [Compound 119]", 9.4],
  ["CNC[C@@H](c1ccc(Br)c(Cl)c1)[C@@H](O)c1ccccc1 [Compound 110]", 9.4],
  ["CNC[C@@H](c1ccc2ccccc2c1)[C@H](O)c1ccccn1 [Compound 99]", 9.6],
  ["CNC[C@H](c1ccc(-c2ccccc2)cc1)[C@H](O)c1ccccc1 (racemic) [Compound 113]", 9.8],
  ["CNC[C@H](c1ccc2ccccc2c1)[C@H](OCC(=O)N(C)OC)c1ccccc1 [Compound 71]", 9.6]
]}

----------
Catalogue of pIC50 values
target: CYP3A4 (Homo sapiens (Human), UniProt P08684); assay: Cytochrome P450 inhibition assay, recombinant CYP3A4 (BFC substrate); format: in vitro ADME; conditions: recombinant enzyme
Sequence (P08684 whole entry): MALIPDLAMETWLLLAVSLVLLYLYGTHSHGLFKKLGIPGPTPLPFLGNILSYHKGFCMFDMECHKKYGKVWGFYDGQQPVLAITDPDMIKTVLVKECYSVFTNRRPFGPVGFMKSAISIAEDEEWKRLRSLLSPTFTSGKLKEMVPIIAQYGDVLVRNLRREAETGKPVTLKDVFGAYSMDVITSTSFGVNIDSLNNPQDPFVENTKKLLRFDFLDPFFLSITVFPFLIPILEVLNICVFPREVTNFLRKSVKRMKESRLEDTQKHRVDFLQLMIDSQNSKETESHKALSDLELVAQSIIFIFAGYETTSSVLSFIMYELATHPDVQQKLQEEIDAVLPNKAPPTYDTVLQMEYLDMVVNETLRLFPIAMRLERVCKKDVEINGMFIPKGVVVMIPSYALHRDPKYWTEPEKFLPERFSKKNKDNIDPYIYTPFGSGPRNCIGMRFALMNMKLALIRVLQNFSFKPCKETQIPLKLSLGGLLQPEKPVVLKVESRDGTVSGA
pIC50: −log10 of the molar value.

{"columns": ["Molecule", "pIC50"],
 "data": [
  ["CNC[C@H](c1ccc(Cl)c(Cl)c1)[C@H](O)c1ccccc1", 4.70],
  ["CNC[C@H](c1ccc2ccccc2c1)[C@H](OCC(N)=O)c1ccccc1", 4.70],
  ["CNC[C@H](c1ccc2ccccc2c1)[C@H](O)c1cc(F)cc(F)c1 (racemic)", 4.72],
  ["NCC(c1ccc2ccccc2c1)C(O)c1ccc(F)cc1F (stereo not drawn)", 4.72],
  ["CNC[C@@H](c1ccc(Cl)c(Cl)c1)[C@@H](O)c1cccc(SC)c1 [Compound 154]", 5.16],
  ["CNCC(Cc1ccccc1)c1ccc2cccnc2c1 (stereo not drawn)", 4.80],
  ["CNC[C@H](c1ccc(Cl)c(Cl)c1)[C@H](O)c1cccc(S(C)(=O)=O)c1", 4.70],
  ["NCC[C@@H](Cc1cccnc1)c1ccc(Cl)c(Cl)c1", 4.74],
  ["CNC[C@H](c1ccc2ccccc2c1)[C@H](O)c1ccccc1F", 4.70],
  ["CNC[C@@H](c1ccc(Cl)c(Cl)c1)[C@@H](O)c1cccc(NS(=O)(=O)C(F)(F)F)c1", 4.70],
  ["NC[C@@H](c1ccc2ccccc2c1)[C@@H](O)c1ccc(Cl)nc1", 4.70],
  ["CN(C)CC(C)(c1ccc2ccccc2c1)C(O)c1ccccc1 (stereo not drawn)", 4.70],
  ["CNC[C@@H](c1ccc(Cl)c(Cl)c1)[C@@H](O)c1cccc(N2CCOCC2)c1", 5.32],
  ["CNC[C@@H](c1ccc2ccccc2c1)[C@@H](O)c1cccnc1 [Compound 49]", 4.70],
  ["CNC[C@H](c1ccc(Cl)c(Cl)c1)[C@H](O)c1cccc(N(C)C)c1 (single isomer, unassigned)", 5.34],
  ["CNC[C@H](c1ccc2ccccc2c1)[C@H](F)c1ccccc1", 5.07],
  ["CNC[C@@H](c1ccc2ccccc2c1)[C@@H](O)c1cncc(OC)c1", 4.70],
  ["CNC[C@H](c1ccc(Cl)c(Cl)c1)[C@H](O)c1cccc(N)c1", 4.70]
]}

----------
biological target: human norepinephrine transporter (Homo sapiens (Human)); experiment: Human NET (norepinephrine transporter) uptake assay; assay type: cell-based; conditions: read-out: hNET Ki
Sequence (P23975 whole entry): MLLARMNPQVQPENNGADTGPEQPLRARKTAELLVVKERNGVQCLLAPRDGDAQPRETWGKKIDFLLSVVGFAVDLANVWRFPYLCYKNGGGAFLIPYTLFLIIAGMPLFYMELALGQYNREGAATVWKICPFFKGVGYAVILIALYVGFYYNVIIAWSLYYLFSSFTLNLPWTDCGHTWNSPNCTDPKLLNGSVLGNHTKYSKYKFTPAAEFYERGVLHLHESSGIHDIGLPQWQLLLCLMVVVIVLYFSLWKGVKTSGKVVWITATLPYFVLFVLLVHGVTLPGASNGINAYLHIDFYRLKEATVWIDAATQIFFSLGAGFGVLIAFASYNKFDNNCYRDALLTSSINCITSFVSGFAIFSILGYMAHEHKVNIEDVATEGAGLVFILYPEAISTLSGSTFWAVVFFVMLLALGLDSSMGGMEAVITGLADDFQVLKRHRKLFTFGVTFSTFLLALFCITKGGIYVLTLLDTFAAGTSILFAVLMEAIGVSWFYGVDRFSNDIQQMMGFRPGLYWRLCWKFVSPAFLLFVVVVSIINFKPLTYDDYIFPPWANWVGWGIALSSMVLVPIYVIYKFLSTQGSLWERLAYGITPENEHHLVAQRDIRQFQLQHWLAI
pKi: −log10 of the molar value.

{"columns": ["Compound", "pKi"],
 "data": [
  ["CNC[C@H](c1ccc(Cl)c(Cl)c1)[C@@H](O)c1ccccc1I", 6.90],
  ["CNC[C@@H](c1ccc(Cl)c(Cl)c1)[C@@H](O)c1cccc(NS(=O)(=O)C(F)(F)F)c1", 6.57],
  ["CNC[C@H](c1ccc(Cl)c(Cl)c1)[C@H](O)c1cccc(OC)n1", 7.97],
  ["CNC[C@H](c1ccc2ccccc2c1)[C@H](O)c1ccc2c(c1)OCCO2", 8.18],
  ["CN(C)C[C@H](c1ccc2ccccc2c1)[C@H](O)c1cccs1 (racemic)", 7.93],
  ["CNCC(Cc1ccc(C)s1)c1ccc2ccccc2c1 (stereo not drawn)", 8.30],
  ["CNC[C@H](c1ccc(Cl)c(Cl)c1)[C@@H](O)c1cccc(I)c1", 7.41],
  ["CNCC(Cc1ccccc1C)c1ccc2ccccc2c1 (stereo not drawn) [Compound 134]", 8.22],
  ["CNCC(Cc1ccccc1)c1ccc2cccnc2c1 (stereo not drawn)", 7.98]
]}

----------
target: UniProtKB P23975; assay: Human NET (norepinephrine transporter) uptake assay; format: cell-based; conditions: read-out: hNET Ki
pKi: −log10 of the molar value.

{"columns": ["Compound", "Assayed target", "pKi"],
 "data": [
  ["CNC[C@H](c1ccc2ccccc2c1)[C@H](OCC(=O)NCCO)c1ccccc1", "UniProtKB P23975", 8.80],
  ["CNC[C@H](c1ccc2ccccc2c1)[C@H](OCC(=O)NCCOC)c1ccccc1", "UniProtKB P23975", 8.41],
  ["CNC[C@H](c1ccc(Br)cc1)[C@H](O)c1ccccc1 (racemic)", "UniProtKB P23975", 8.11],
  ["CNC[C@@H](c1ccc(Cl)c(Cl)c1)[C@H](O)c1cccc(NC(C)=O)c1", "UniProtKB P23975", 7.41],
  ["CNC[C@@H](c1ccc(Cl)c(Cl)c1)[C@@H](O)c1cccc(OC)n1", "UniProtKB P23975", 7.05],
  ["CNC[C@H](c1ccc(Cl)c(Cl)c1)[C@H](O)c1ccncc1 (racemic)", "UniProtKB P23975", 7.75],
  ["NC[C@@H](c1ccc2ccccc2c1)C(O)c1ccncc1Cl (some centres unmarked)", "UniProtKB P23975", 6.60],
  ["CNC[C@H](c1ccc2ccccc2c1)[C@H](OCc1nc(C)no1)c1ccccc1", "UniProtKB P23975", 8.09]
]}

----------
target: human dopamine transporter (Homo sapiens (Human), UniProt Q01959); experiment: Human DAT (dopamine transporter) uptake assay; format: cell-based; details: read-out: hDAT Ki
Sequence (Q01959 whole entry): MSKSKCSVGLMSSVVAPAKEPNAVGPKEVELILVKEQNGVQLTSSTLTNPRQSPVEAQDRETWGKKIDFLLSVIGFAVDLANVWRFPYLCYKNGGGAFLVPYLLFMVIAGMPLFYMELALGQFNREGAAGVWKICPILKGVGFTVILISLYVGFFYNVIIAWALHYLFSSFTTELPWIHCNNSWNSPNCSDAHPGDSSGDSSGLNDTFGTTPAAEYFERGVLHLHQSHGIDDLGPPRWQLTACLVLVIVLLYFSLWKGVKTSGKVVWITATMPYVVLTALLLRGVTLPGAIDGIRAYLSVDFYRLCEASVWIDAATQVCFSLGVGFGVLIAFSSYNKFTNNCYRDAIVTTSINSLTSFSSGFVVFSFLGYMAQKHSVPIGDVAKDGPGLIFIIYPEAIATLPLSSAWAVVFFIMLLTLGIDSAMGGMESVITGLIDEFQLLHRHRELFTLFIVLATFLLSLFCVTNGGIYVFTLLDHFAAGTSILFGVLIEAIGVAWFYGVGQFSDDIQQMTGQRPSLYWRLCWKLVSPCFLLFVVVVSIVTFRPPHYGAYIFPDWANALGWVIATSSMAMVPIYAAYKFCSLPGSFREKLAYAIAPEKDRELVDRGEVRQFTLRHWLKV
pKi: −log10 of the molar value.
Examples of compounds with documented pKi follow.
Value kind: pKi

{"columns": ["Compound", "Measured number"],
 "data": [
  ["CNCC(Cc1ccccc1OC)c1ccc2ccccc2c1 (stereo not drawn) [Compound 132]", 7.38],
  ["CNC[C@H](c1ccc2ccccc2c1)[C@H](OCCO)c1ccccc1", 7.80],
  ["c1ccc([C@@H]2OCCNC[C@H]2c2ccc3ccccc3c2)cc1", 8.03],
  ["CNC[C@H](c1ccc(Cl)c(Cl)c1)[C@@H](O)c1ccccc1-c1cccs1", 7.56],
  ["CN(C)C[C@H](c1ccc2ccccc2c1)[C@H](OCCO)c1ccccc1", 7.60],
  ["CNC[C@@H](c1ccc(Cl)c(Cl)c1)[C@@H](O)c1ccsc1 [Compound 153]", 7.47],
  ["CNC[C@H](c1ccc2ccccc2c1)[C@H](O)c1ccc(Cl)nc1", 7.27],
  ["CNC[C@@H](c1ccc(Cl)c(Cl)c1)[C@@H](O)c1cccnc1OC", 7.04],
  ["CNC[C@H](c1ccc2ccccc2c1)[C@H](OCC(=O)Nc1ccccc1)c1ccccc1", 8.05],
  ["CNC[C@H](c1ccc(Cl)c(Cl)c1)[C@H](O)c1cccc(S(C)(=O)=O)c1", 7.14],
  ["CNC[C@H](c1ccc2ccccc2c1)[C@H](F)c1ccccc1", 7.37],
  ["CNC[C@H](c1ccc(Br)cc1)[C@H](O)c1ccccc1 (racemic)", 6.89],
  ["CNC[C@@H](c1ccc2ccccc2c1)[C@@H](O)c1ccc2c(c1)OCCO2 (racemic)", 6.87],
  ["C[C@](CN)(Cc1cccnc1)c1ccc2ccccc2c1", 7.05],
  ["CNC[C@@H](c1ccc(Cl)c(Cl)c1)[C@@H](O)c1cccc(SC)c1 [Compound 120]", 7.05],
  ["CNC[C@@H](c1ccc(Cl)c(Cl)c1)[C@@H](O)c1cccc(SC)c1 [Compound 154]", 7.39],
  ["NC[C@@H](c1ccc2ccccc2c1)C(O)c1ccncc1Cl (stereo partly drawn)", 6.86],
  ["CNC[C@H](c1ccc(Cl)c(Cl)c1)[C@H](O)c1ccccc1I", 6.95]
]}

----------
Listed below: IC50 values for each entry.
molecular target: CYP2D6 (Homo sapiens (Human), UniProt P10635); test: Cytochrome P450 inhibition assay, recombinant CYP2D6 (MAMC substrate); assay type: in vitro ADME; conditions: recombinant enzyme
Sequence (P10635 whole entry): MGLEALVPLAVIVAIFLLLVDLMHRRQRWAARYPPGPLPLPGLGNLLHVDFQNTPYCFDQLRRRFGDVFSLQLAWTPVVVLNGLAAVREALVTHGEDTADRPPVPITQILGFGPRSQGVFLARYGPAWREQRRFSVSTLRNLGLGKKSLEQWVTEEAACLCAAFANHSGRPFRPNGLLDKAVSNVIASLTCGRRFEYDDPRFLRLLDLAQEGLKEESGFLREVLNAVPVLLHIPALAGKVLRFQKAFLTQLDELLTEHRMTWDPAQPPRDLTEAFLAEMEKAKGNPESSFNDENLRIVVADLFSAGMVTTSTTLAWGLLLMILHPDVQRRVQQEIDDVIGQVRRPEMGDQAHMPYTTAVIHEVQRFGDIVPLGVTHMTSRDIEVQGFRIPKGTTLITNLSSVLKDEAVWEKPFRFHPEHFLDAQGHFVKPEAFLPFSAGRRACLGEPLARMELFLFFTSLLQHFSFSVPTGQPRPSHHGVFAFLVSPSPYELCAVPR

{"columns": ["Compound", "IC50 / nM"],
 "data": [
  ["CNCC(c1ccc2ccccc2c1)[C@@H](O)c1ccc(Cl)nc1 (stereo partly drawn) [Compound 169]", 1300],
  ["CNC[C@@H](c1ccc(Cl)c(Cl)c1)[C@@H](OC)c1cccc(NS(=O)(=O)C(F)(F)F)c1 [Compound 172]", 970],
  ["CNC[C@@H](c1ccc2ccccc2c1)[C@H](O)c1ccccn1 (racemic) [Compound 72]", 760],
  ["CNC[C@H](c1ccc(Cl)c(Cl)c1)[C@H](O)c1ccccc1 [Compound 10]", 120],
  ["CNC[C@H](c1ccc(Cl)c(Cl)c1)[C@@H](O)c1cccc(N)c1 [Compound 63]", 2800],
  ["NCC[C@@H](Cc1cccnc1)c1ccc(Cl)c(Cl)c1 [Compound 112]", 2900],
  ["CNC[C@H](c1ccc2ccccc2c1)[C@H](OCC(=O)NCCO)c1ccccc1 [Compound 14]", 3700],
  ["CNC[C@H](c1ccc2ccccc2c1)[C@H](O)c1cccnc1 (racemic) [Compound 62]", 1000],
  ["CNC[C@H](c1ccc(Cl)c(Cl)c1)[C@H](O)c1cccc(Br)c1 [Compound 76]", 140]
]}

Data credit: patent US9944618B2
